Measured values drawn from patent US11866430B2 for this set.

- experimental target: human DGKζ (Homo sapiens (Human))
- protocol summary: DGKζ LIPGLO assay (extruded liposome substrate)
- Format: biochemical
- settings: extruded liposome substrate; read-out: DGKζ LIPGLO IC50
pIC50: −log10 of the molar value.
# binarize pIC50: threshold 5 inclusive, high side rule met, low side rule not met

molecule="COc1cccnc1C(c1ccc(F)cc1)N1CCN(c2c(C#N)c(=O)n(C)c3ccc(C)nc23)CC1 (centres unmarked) [Example 255]" experimental_target="human DGKζ (Homo sapiens (Human))" label_value="rule not met"
molecule="C#CCn1c(=O)c([N+](=O)[O-])c(N2CCN(C(c3ccc(F)cc3)C3CC3)CC2)c2nc(C#N)ccc21 (single isomer, unassigned) [Example 143]" experimental_target="human DGKζ (Homo sapiens (Human))" label_value="rule met"
molecule="COc1cc(F)ccc1C(c1ccc(F)cc1)N1CCN(c2cc(=O)n(C)c3ccc(C#N)nc23)CC1 (centres unmarked) [Example 392]" experimental_target="human DGKζ (Homo sapiens (Human))" label_value="rule met"
molecule="CCC(c1ccc(F)cc1)N1CCN(c2c(C#N)c(=O)n(CC#N)c3ccc(Br)nc23)CC1 (centres unmarked) [Example 155]" experimental_target="human DGKζ (Homo sapiens (Human))" label_value="rule not met"
molecule="Cc1cccc(OCc2cncc(C#N)c2)c1C(c1ccc(F)cc1)N1CCN(c2c([N+](=O)[O-])c(=O)n(C)c3ccc(Br)nc23)CC1 (single isomer, unassigned) [Example 90]" experimental_target="human DGKζ (Homo sapiens (Human))" label_value="rule not met"
molecule="Cn1c(=O)c([N+](=O)[O-])c(N2CCN(C(c3ccc(F)cc3)C3CC3)CC2)c2nc(C#N)ccc21 (single isomer, unassigned) [Example 50]" experimental_target="human DGKζ (Homo sapiens (Human))" label_value="rule met"
molecule="Cc1ccc(O)c(CN2CCN(c3c(C#N)c(=O)n(C)c4ccc(Cl)nc34)CC2)c1 [Example 283]" experimental_target="human DGKζ (Homo sapiens (Human))" label_value="rule met"
molecule="Cc1ccc2c(n1)c(N1CCN(C(C)c3ccc(F)cc3)CC1)c(Br)c(=O)n2C (centres unmarked) [Example 224]" experimental_target="human DGKζ (Homo sapiens (Human))" label_value="rule not met"

Textbook exercise: given the entry Cn1c(=O)c([N+](=O)[O-])c(N2CCN(C(c3ccc(F)cc3)c3ccccc3O)CC2)c2nc(C#N)ccc21 (single isomer, unassigned) [Example 99] , state whether its pIC50 is greater than or equal to 5.
rule met

Textbook exercise: given the entry Cn1c(=O)cc(N2CCN(C(c3ccc(F)cc3)c3ccc(F)cc3)CC2)c2nc(C#N)ccc21 [Example 432] , state whether its pIC50 is greater than or equal to 5.
rule met

Textbook exercise: given the entry CC(c1ccc(F)cc1)N1CCN(c2c([N+](=O)[O-])c(=O)n(C)c3ccc(C#N)nc23)CC1 (single isomer, unassigned) [Example 45] , state whether its pIC50 is greater than or equal to 5.
rule met

###

IC50 for assorted compounds
- experimental target: human DGKζ (Homo sapiens (Human), UniProt Q13574)
- Sequence (Q13574 other isoform, or with tags, fused parts or gaps): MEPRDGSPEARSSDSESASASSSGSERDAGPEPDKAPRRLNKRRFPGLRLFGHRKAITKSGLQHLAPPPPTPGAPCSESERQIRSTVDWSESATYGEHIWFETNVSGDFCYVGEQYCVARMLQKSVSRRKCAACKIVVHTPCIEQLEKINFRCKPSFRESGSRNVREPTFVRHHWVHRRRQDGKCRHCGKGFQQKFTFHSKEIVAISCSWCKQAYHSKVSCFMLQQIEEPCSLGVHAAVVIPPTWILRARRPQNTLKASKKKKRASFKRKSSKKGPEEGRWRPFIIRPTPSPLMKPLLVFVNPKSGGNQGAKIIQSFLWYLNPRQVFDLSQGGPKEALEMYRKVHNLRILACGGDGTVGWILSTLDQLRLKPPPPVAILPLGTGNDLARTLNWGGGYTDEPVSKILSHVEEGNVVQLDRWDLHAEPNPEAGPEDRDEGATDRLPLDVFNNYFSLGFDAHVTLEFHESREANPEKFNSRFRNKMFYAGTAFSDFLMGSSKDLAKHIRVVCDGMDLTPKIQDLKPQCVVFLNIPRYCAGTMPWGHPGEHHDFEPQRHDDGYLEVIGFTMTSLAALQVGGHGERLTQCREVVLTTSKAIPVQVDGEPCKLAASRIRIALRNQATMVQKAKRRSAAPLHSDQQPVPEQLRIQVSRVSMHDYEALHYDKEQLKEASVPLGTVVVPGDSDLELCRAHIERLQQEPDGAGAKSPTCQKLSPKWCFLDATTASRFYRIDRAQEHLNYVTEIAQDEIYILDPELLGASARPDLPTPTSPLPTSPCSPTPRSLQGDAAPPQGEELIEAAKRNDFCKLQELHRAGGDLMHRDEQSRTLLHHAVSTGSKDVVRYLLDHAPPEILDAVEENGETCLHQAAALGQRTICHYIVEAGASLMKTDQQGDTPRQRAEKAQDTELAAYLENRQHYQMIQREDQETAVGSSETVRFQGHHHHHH
- protocol summary: DGKζ assay (detergent/lipid micelle substrate)
- Assay type: biochemical
- settings: detergent/lipid micelle substrate; read-out: DGKζ IC50

Sample answers from the record:
compound="Cn1c(=O)c(C#N)c(N2CCN(Cc3cccc4nc[nH]c34)CC2)c2nc(Br)ccc21 [Example 360]" measured_value="> 240 µM"
compound="Cn1c(=O)c(C#N)c(N2CCN(Cc3ccc(F)c(F)c3)CC2)c2nc(Cl)ccc21 [Example 319]" measured_value="220 µM"
compound="Cn1c(=O)c(C#N)c(N2CCN(Cc3ccc(Br)cc3O)CC2)c2nc(C#N)ccc21 [Example 263]" measured_value="14 µM"

// Input: Cn1c(=O)c(C#N)c(N2CCN(C(c3ccc(F)cc3)C3CC3)CC2)c2nc(Br)ccc21 (stereo not shown) [Example 35] . Output its IC50 only.
> 240 µM

###

- experimental target: human DGKα (Homo sapiens (Human))
- protocol summary: biochemical
- settings: detergent/lipid micelle substrate; read-out: DGKα IC50
reported metric: log10 of IC50 (log10 of the value in nM)
Values below are the log10 of the recorded IC50, with nM as the unit.

Sample answers from the record:
molecule="C#CCn1c(=O)c([N+](=O)[O-])c(N2CCN(C(CC)c3ccc(F)cc3)CC2)c2nc(C#N)ccc21 (single isomer, unassigned) [Example 141]" reported_metric="log10 of IC50" measured_value=2.43
molecule="C#CCn1c(=O)c([N+](=O)[O-])c(N2CCN(C(c3ccc(F)cc3)C3CC3)CC2)c2nc(C#N)ccc21 (single isomer, unassigned) [Example 143]" reported_metric="log10 of IC50" measured_value=3.11

In the following, a different molecule is considered.
Fill in log10 of IC50 for C#CCn1c(=O)c([N+](=O)[O-])c(N2CCN(C(c3ccccc3)c3ccccc3)CC2)c2ncccc21 tested with human DGKα (Homo sapiens (Human)).
3.53

###

IC50 for assorted compounds
- experimental target: human DGKζ (Homo sapiens (Human), UniProt Q13574)
- protocol summary: DGKζ assay (detergent/lipid micelle substrate)
- Type: biochemical
- settings: detergent/lipid micelle substrate; read-out: DGKζ IC50
Please respond with the number in µM and leave the unit unwritten.

Sample answers from the record:
compound=C#CCn1c(=O)c(C#N)c(N2CCN(Cc3ccc(F)cc3OC)CC2)c2nc(Br)ccc21 measured_value=23
compound=Cc1ccc2c(n1)c(N1CCN(Cc3cccc(Cl)c3O)CC1)c(C#N)c(=O)n2C measured_value=130
compound="C#CCn1c(=O)c([N+](=O)[O-])c(N2CCN(C(c3ccc(F)cc3)c3ccc(F)cc3O)CC2)c2nc(C#N)ccc21 (racemic) [Example 119]" measured_value=0.19
compound="C#CCn1c(=O)c([N+](=O)[O-])c(N2CCN(C(CC)c3ccc(F)cc3)CC2)c2nc(C#N)ccc21 (racemic) [Example 139]" measured_value=0.91
compound=C#CCn1c(=O)c(C#N)c(N2CCN(Cc3ccccc3O)CC2)c2nc(Br)ccc21 measured_value=20

// Input: COc1ccc2c(c1)C(N1CCN(c3c(C#N)c(=O)n(CC#N)c4ccc(Br)nc34)CC1)CC2 (stereo not shown) . Output its IC50 only.
140

###

- experimental target: human DGKα (Homo sapiens (Human), UniProt P23743)
- Sequence (P23743 other isoform, or with tags, fused parts or gaps): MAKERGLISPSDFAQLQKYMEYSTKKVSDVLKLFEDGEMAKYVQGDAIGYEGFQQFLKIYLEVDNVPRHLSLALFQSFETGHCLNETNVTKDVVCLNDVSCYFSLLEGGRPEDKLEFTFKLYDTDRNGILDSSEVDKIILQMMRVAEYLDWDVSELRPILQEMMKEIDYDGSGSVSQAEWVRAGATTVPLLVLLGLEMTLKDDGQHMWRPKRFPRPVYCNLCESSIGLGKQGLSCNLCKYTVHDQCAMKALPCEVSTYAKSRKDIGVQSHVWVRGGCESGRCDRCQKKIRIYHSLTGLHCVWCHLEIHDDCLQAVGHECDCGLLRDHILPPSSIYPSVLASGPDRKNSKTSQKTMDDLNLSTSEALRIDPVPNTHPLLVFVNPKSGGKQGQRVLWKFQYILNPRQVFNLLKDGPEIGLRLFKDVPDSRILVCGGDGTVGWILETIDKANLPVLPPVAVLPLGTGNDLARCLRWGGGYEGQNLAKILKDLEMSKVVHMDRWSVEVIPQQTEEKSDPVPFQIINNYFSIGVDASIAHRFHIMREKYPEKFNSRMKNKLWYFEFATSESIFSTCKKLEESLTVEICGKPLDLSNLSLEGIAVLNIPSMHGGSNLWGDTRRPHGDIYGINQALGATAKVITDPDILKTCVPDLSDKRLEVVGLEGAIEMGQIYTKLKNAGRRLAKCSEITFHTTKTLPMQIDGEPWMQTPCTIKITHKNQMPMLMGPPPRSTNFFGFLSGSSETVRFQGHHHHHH
- protocol summary: DGKα LIPGLO assay (extruded liposome substrate)
- Assay type: biochemical
pIC50 for assorted compounds
# reply with the number alone; pIC50 is -log10 of concentration in mol/L

Sample answers from the record:
compound="C#CCn1c(=O)c([N+](=O)[O-])c(N2CCN(C(c3ccc(F)cc3)c3ccc(F)cc3O)CC2)c2nc(C#N)ccc21 (single isomer, unassigned)" reported_metric=pIC50 measured_value=5.19
compound=C#CCn1c(=O)c([N+](=O)[O-])c(N2CCN(C(c3ccc(F)cc3)c3ccc(F)cc3)CC2)c2nc(C#N)ccc21 reported_metric=pIC50 measured_value=5.89
compound=Cn1c(=O)c(C#N)c(N2CCN(Cc3cccc(Cl)c3O)CC2)c2nc(Cl)ccc21 reported_metric=pIC50 measured_value=6.22
compound=Cn1c(=O)c(C#N)c(N2CCN(C(c3ccccc3)c3ccccc3)CC2)c2ncccc21 reported_metric=pIC50 measured_value=5.57

In the following, a different compound is considered.
// Input: Cn1c(=O)c(C#N)c(N2CCN(Cc3cc(F)cc(C(F)(F)F)c3)CC2)c2nc(Cl)ccc21 . Output its pIC50 only.
4.77

###

pIC50 for assorted molecules
- experimental target: human DGKζ (Homo sapiens (Human), UniProt Q13574)
- protocol summary: DGKζ LIPGLO assay (extruded liposome substrate)
- Format: biochemical
- settings: extruded liposome substrate; read-out: DGKζ LIPGLO IC50
# reply with the number alone; pIC50 is -log10 of concentration in mol/L

// Input: Cn1c(=O)c(C#N)c(N2CCN(C(c3ccccc3)c3ccc(Cl)cc3)CC2)c2nc(Br)ccc21 (racemic) . Output its pIC50 only.
5.03

// Input: COc1ccc(O)c(CN2CCN(c3c(C#N)c(=O)n(C)c4ccc(Cl)nc34)CC2)c1 . Output its pIC50 only.
5.12

// Input: Cc1cccc(CN2CCN(c3c(C#N)c(=O)n(C)c4ccc(Cl)nc34)CC2)c1O . Output its pIC50 only.
5.68

// Input: C#CCn1c(=O)c(C#N)c(N2CCN(C(c3ccc(F)cc3)c3ccc(F)cc3)CC2)c2nc(Br)ccc21 . Output its pIC50 only.
4.96

// Input: COc1cccc(F)c1CN1CCN(c2c(C#N)c(=O)n(C)c3ccc(Cl)nc23)CC1 . Output its pIC50 only.
4.74

// Input: Cn1c(=O)c(C#N)c(N2CCN([C@@H](c3ccccc3)c3ccc(Cl)cc3)CC2)c2nc(C#N)ccc21 . Output its pIC50 only.
5.82

###

- experimental target: human DGKζ (Homo sapiens (Human))
- protocol summary: DGKζ assay (detergent/lipid micelle substrate)
- Assay type: biochemical
- settings: detergent/lipid micelle substrate; read-out: DGKζ IC50
IC50 for assorted compounds

compound=N#Cc1c(N2CCN(C(c3ccc(F)cc3)c3ccc(F)cc3)CC2)c2nc(Br)ccc2n(CC2CC2)c1=O experimental_target="human DGKζ (Homo sapiens (Human))" measured_value="> 81 µM"
compound="COCCn1c(=O)c([N+](=O)[O-])c(N2CCN(C(C)c3ccc(F)cc3)CC2)c2nc(C#N)ccc21 (single isomer, unassigned) [Example 150]" experimental_target="human DGKζ (Homo sapiens (Human))" measured_value="88 µM"
compound="Cc1ccc2c(n1)c(N1CCN(C(C)c3ccc(F)cc3)CC1)c(Br)c(=O)n2C (stereo not shown)" experimental_target="human DGKζ (Homo sapiens (Human))" measured_value="> 240 µM"

In the following, a different compound is considered.
// Input: CC(c1ccc(F)cc1)N1CCN(c2c(C#N)c(=O)n(CC#N)c3ccc(Br)nc23)CC1 (stereo not shown) . Output its IC50 only.
> 240 µM
